result-type: melting point

Example molecules with recorded melting point:
molecule	melting point
Cc1sc2[nH]c(=O)c(=O)[nH]c2c1C	> 300 °C
CCC(=NOCC=Cc1ccc(Br)cc1)C1=C(O)CC(C2CCCSC2)CC1=O (stereo not given)	97 to 99 °C
CCOC(=O)CC[C@H](NC(=O)c1ccc(CNCc2cnc3nc(NC(=O)C(C)(C)C)nc(O)c3c2)cc1)C(=O)OCC	149 to 151 °C
CNS(=O)(=O)c1sc2ccccc2c1CC(=O)O	190 to 192 °C
CCCc1c(O)cc2oc3cccn3c(=O)c2c1O	170 to 171 °C
CC12CCCCC1CCC1C2CCC2(C)C(NCc3ccccc3)CCC12 (stereo not given)	85.5 to 87.5 °C

Task: Quick check: melting point of `O=C(O)Cc1cccc2nnsc12` ?
Result: 148 to 150 °C

Task: // repeat for `O=C(Nc1cc(C(F)(F)F)c[nH]c1=O)c1ccccc1` and report
Result: 207 to 210 °C

Task: // repeat for `Nc1ccc(-c2ccc3nnn(Cc4ccc5ncccc5c4)c3n2)cc1` and report
Result: 190 to 193 °C

* * *

result-type: melting point (°C)

molecule	units-label	melting point
CCC(Oc1cccc(C(F)(F)F)n1)C(=O)O (stereo unspecified)	°C	91

a = Cc1ccc(CN(C)CCOc2ccc(NC(=O)c3cccc4c(=O)c5ccccc5[nH]c34)cc2)cc1
b = CCCCCCCCOc1ccc(-c2ccc(CCl)cc2)cc1
Task: // which entry reports the smaller melting point, a or b ? In your reply, give the label of the chosen option.
Result: b

* * *

melting point values for the compounds below.

compound	result-type	measured-value
Cc1nc(N)c(N)cc1Cl	melting point	128 to 130 °C
O=c1[nH]c2ccsc2c(=O)n1CCN1CCN(c2ccccc2Cl)CC1	melting point	193 to 196 °C
Cc1c(C#N)sc2nc(-c3ccc4c(c3)OCO4)nc(N3CCOCC3)c12	melting point	197 to 198 °C
Cn1ccnc1COc1nn2c(-c3ccccc3F)nnc2cc1C1CCC1	melting point	173 °C

Task: Quick check: melting point of CCOCCn1cc2c(C3C(=O)Nc4ccc(Br)cc43)nc(Cl)nc2n1 (configuration not stated) ?
Result: 260 to 263 °C

Task: // repeat for `NC(=O)N(O)Cc1ccc(OCCc2noc(-c3ccccc3)n2)cc1` and report
Result: 135 to 136 °C

Task: // repeat for `COc1ccc(-c2cccs2)c2c1c(CCN(C)C)cn2C` and report
Result: 131 to 133 °C

Task: // repeat for `CC(=O)Nc1ccc2c(c1)N(C1CCN(CCc3ccc(F)cc3)CC1)CC2` and report
Result: 148 to 150 °C

Task: // repeat for CCCOC1CC2(C)C(CCC3C2CCC2(C)C(C(=O)CSCCCO)CCC32)CC1O (configuration not stated) and report
Result: 133 to 136 °C

Task: // repeat for `CCCCCC/C=C/CCCCCCCC(=O)Nc1nc(CC(=O)O)cs1` and report
Result: 117 to 118 °C

* * *

melting point values for the compounds below.

compound	measured-value
COC(=O)c1ccc2c(c1)Sc1ccc(C(C)N(O)C(N)=O)cc1CC2 (centres undefined)	167 to 169 °C
CN1C(=O)[C@H](NC(=O)CCc2ccc(Cl)cc2)N=C(c2ccccc2)c2ccccc21	203 to 205 °C
CCNC(=S)NCc1cccc2c1C(=O)N(C1CCC(=O)NC1=O)C2=O (centres undefined)	154 to 156 °C
O=[N+]([O-])c1cc(Sc2ccc(Cl)cc2)[nH]c1-c1ccc(Cl)cc1	195 to 197 °C
CC1(C)CC(N(C=O)CCc2ccccc2)CC(C)(C)N1	86 °C
CN(C(=O)On1nc(Br)c(Br)c1Br)c1ccccc1	115 to 119 °C
COc1nc(OC)nc(-n2c(C(F)(F)F)nc3cc(C)ccc32)n1	137 to 140 °C
Cc1nc2c(N)nc3ccccc3c2n1CCCCNC(=O)C1CCCC1	169 to 170 °C

Task: Quick check: melting point of `CCCn1nc2c(N)nc3ccccc3c2c1CCCc1ccn(Cc2ccccc2)c1` ?
Result: 138 to 140 °C

Task: // repeat for `CC(C)(Cl)Cn1ncc(OCc2ccc(I)nc2)c(Cl)c1=O` and report
Result: 119 to 123 °C

Task: // repeat for `CCCCc1nc2c(N)nc3c(c2n1CC(C)(C)OCCS(C)(=O)=O)CCCC3` and report
Result: 146 to 148 °C

Task: // repeat for `C1CNCCN2CCOCCOCCN(CCN1)CCOCCOCC2` and report
Result: 69 °C

* * *

melting point values for the compounds below.

Example compounds with recorded melting point:
compound	measured-value
CN(C)Cc1ccc(CSCCNc2ncc(Cc3ccn(Cc4ccccc4)c(=O)c3)c(=O)[nH]2)o1	95.5 to 98 °C
Clc1ncccc1OCC#CI	164 to 165 °C
CCNC(=S)n1nc(Oc2c(F)cc(C(F)(F)F)cc2Cl)cc1C	114 to 115 °C
NC(=O)N1CCNC1=O	200 °C
O=C(CCCN1CCC(Cc2ccccc2)CC1)c1ccc2c(c1)C(=O)c1cc(C(=O)CCCN3CCC(Cc4ccccc4)CC3)ccc1-2	141 to 143 °C
Nc1ccc2c(=O)n3c(nc2c1)C(=Cc1ccc(C(=O)O)cc1)CC3	336 to 339 °C
CCCC1CC(=O)Nc2c1cnn2CC (stereo not given)	108 to 110 °C
Cc1ccc2c(c1)c(=O)c1c(cnn1C)n2CC(N)=O	247 to 252 °C
COc1cc(C=CC(=O)Nc2cnc3c(C)c(Cl)ccc3c2-c2ccccc2C)cc(OC)c1OC(C)=O	213 to 214 °C

Pending compound:
Task: Quick check: melting point of CCCN(CCN1CCN(C(=O)c2n[nH]c3ccccc23)CC1)C1CCc2c(O)cccc2C1 (stereo not given) ?
Result: 167 to 170 °C

* * *

result-type: melting point

Example compounds with recorded melting point:
compound	result-type	measured-value
Nc1nc(-c2ccnc(-c3ccc(C(=O)NC4CCOCC4)cc3)c2)c(-c2ccccn2)s1	melting point	268 °C
c1ccc(C(c2ccccc2)N2CCN(CCOc3ccccc3-c3nc4ccccc4s3)CC2)cc1	melting point	67 to 72 °C
Cn1cc(-c2c(-c3ccc(F)cc3)nn3ccncc23)ccc1=O	melting point	222 to 223 °C
CC(C)(C)NCC(O)c1cc(F)c(N)cc1F (stereo unspecified)	melting point	115 to 116 °C

Task: Quick check: melting point of `CCCNc1c(C#N)cnn1-c1ccc(Cl)c(Cl)c1Cl` ?
Result: 95 to 98 °C

Task: // repeat for `CC(C)(CCCCOCCCc1ccccc1)NCc1c(CO)ccc(O)c1CO` and report
Result: 67 to 69 °C

Task: // repeat for `Cn1cc(C(=O)c2ccc(Cl)cc2)cc1C(=O)CN1CCCCC1` and report
Result: 129 to 130 °C

* * *

melting point values for the molecules below.

Example molecules with recorded melting point:
molecule	melting point
NC(=O)c1cc2c(Oc3ccc(C(=O)NCCN4CCOCC4)cc3)cncc2s1	214 to 216 °C
COC(=O)c1ccc(NS(=O)(=O)c2ccc(F)cc2)cn1	183 to 185 °C
CCOC(=O)c1sc2cc(Cn3ccnc3)ccc2c1Cl	127 to 129 °C
COc1ccc(Cl)cc1N1CCN(CCCNC(=O)c2cccc3c(=O)c(C)c(C(N)=O)oc23)CC1	184 to 192 °C
CCOCc1nc2c(N)nc3cc(OCc4ccccc4)ccc3c2n1CC(C)(C)NC(C)=O	202 to 205 °C
CCN(CC)CCNC(=O)N1CCCC(S(=O)(=O)c2ccc(F)cc2)C1 (centres undefined)	137 to 138 °C

Task: Quick check: melting point of `C#CCN1C(=O)COc2cc(F)c(-n3nc4ccc(Cl)cn4c3=O)cc21` ?
Result: 196 to 198 °C

Task: // repeat for CC(=O)OC1C(C)OC(Oc2ncn(Cc3ccc([N+](=O)[O-])cc3)c2C(N)=O)C(OC(C)=O)C1OC(C)=O (centres undefined) and report
Result: 103 to 105 °C

Task: // repeat for `O=C(Nc1ccc2c(c1)CCC(CCN1CCCC1)=C2)c1ccc(-c2ccc(Cl)cc2)cc1` and report
Result: 207 to 209 °C

* * *

melting point values for the molecules below.

molecule	melting point
O=C(O)c1cc(-c2cccc(C(F)(F)F)c2)ns1	162 to 164 °C
O=c1c2cc(F)c(N3CCCC3)nc2n(-c2ccccc2F)c(=O)n1OCc1ccccc1	221 to 222 °C
Clc1cc2nc(-c3csc(Cc4c(Cl)cccc4Cl)n3)[nH]c2cc1Cl	245 to 247 °C
CCCCc1nc(C2CCCCC2)nn1Cc1ccc(-c2ccccc2-c2nnn[nH]2)cc1	125 to 127 °C

Task: Quick check: melting point of Cc1ccc(C)c(NC(=O)C(C)c2ccc(N)c(N)c2)c1 (stereo not given) ?
Result: 120 to 121 °C

Task: // repeat for `CCn1ncc2c3[nH]nc4c3c(nc21)CCc1ccccc1-4` and report
Result: 229 to 231 °C

Task: // repeat for `Cc1ccccc1-c1c(NC(=O)Nc2c(C)cccc2C(C)C)c(=O)n(C)c2ccc(Cl)cc12` and report
Result: 195 to 196 °C

Task: // repeat for `CC(C)COC(=O)C(=O)c1csc(N)n1` and report
Result: 105 to 108 °C

Task: // repeat for `COc1ccc(C(=O)c2ccccc2F)c(O)c1Br` and report
Result: 127 to 129 °C

Task: // repeat for `Cn1nc(N)c(C(N)=O)c1N` and report
Result: 213 to 215 °C
